These data points were gathered from patent US11339165B2.

test system: rgRSV224 virus; test: Antiviral activity: rgRSV224 (GFP) replication in HeLa cells; type: cell-based, respiratory syncytial virus (RSV); conditions: human respiratory syncytial virus, HeLa, 72 h, read-out: RSV HELA EC50 (μM), rgRSV224 virus (MOI=1), HeLa cells, GFP expression three days post-virus exposure
measured.property: EC50 (µM)
Answers are plain numbers, in µM.

* C[C@@H]1c2ccccc2CCN1C(=O)c1cc(C2CC2)n2nc(-c3ccc(N4C[C@H](C(N)=O)C[C@@H]4C)cc3F)cc2n1 (single isomer, unassigned) [Compound 33] | 0.043
* C[C@@H]1c2ccccc2CCN1C(=O)c1cc(C2CC2)n2nc(-c3ccc(N4CC[C@H](C(N)=O)C4)nc3F)cc2n1 [Compound 49] | 0.024
* C[C@@H]1c2ccccc2CCN1C(=O)c1cc(C2CC2)n2nc(-c3ccc(N4CCC(O)CC4)cc3F)cc2n1 [Compound 74] | 0.076
* CNC(=O)C1CCN(c2ccc(-c3cc4nc(C(=O)N5CCc6ccccc6[C@H]5C)cc(C5CC5)n4n3)c(F)c2)CC1 [Compound 72] | 0.087
* C[C@@H]1c2ccccc2CCN1C(=O)c1cc(C2CC2)n2nc(-c3ccc(N4CC[C@H](NC(=O)C(F)(F)F)C4)cc3F)cc2n1 [Compound 76] | 0.246
* C[C@@H]1c2ccccc2CCN1C(=O)c1cc(C2CC2)n2nc(-c3c(O)cc(N4CC[C@H](C(N)=O)C4)cc3F)cc2n1 [Compound 105] | 0.025
* C[C@@H]1c2ccccc2CCN1C(=O)c1cc(C2CC2)n2nc(-c3ccc(N4CC[C@@H](O)C4)cc3F)cc2n1 [Compound 13] | 0.058
* C[C@@H]1c2ccsc2CCN1C(=O)c1cc(C2CC2)n2nc(-c3ccc(N4CC[C@H](CC(N)=O)C4)cc3F)cc2n1 (single isomer, unassigned) [Compound 42] | 0.025
* CNC(=O)C1CCCN(c2ccc(-c3cc4nc(C(=O)N5CCc6ccccc6[C@H]5C)cc(C5CC5)n4n3)c(F)c2)C1 (stereo partly shown) [Compound 73] | 0.101
* C[C@@H]1c2ccccc2CCN1C(=O)c1cc(C2CC2)n2nc(-c3ccc(N4CC[C@@H](C(N)=O)[C@H]4C)cc3F)cc2n1 (single isomer, unassigned) [Compound 80] | 0.091

Return reported EC50 values for all items listed beneath this line.
1. C[C@@H]1c2ccccc2CCN1C(=O)c1cc(C2CC2)n2nc(-c3ccc(N4CC[C@@](C)(CC(N)=O)C4)cc3F)cc2n1 (single isomer, unassigned) [Compound 24]
2. C[C@@H]1c2ccccc2CCN1C(=O)c1cc(C2CC2)n2nc(-c3ccc(N4CCC(C(N)=O)CC4)cc3F)cc2n1 [Compound 68]
3. C[C@@H]1c2ccccc2CCN1C(=O)c1cc(C2CC2)n2nc(-c3ccc(N4CC[C@@H](NP(C)(C)=O)C4)cc3F)cc2n1 [Compound 30]
4. C[C@@H]1c2ccccc2CCN1C(=O)c1cc(C2CC2)n2nc(-c3ccc(N4CC[C@](C)(CC(N)=O)C4)cc3F)cc2n1 (single isomer, unassigned) [Compound 23]
5. COC(=O)N[C@@H]1CCN(c2ccc(-c3cc4nc(C(=O)N5CCc6ccccc6[C@H]5C)cc(C5CC5)n4n3)c(F)c2)C1 [Compound 9]

[out]
[0.03, 0.058, 0.036, 0.032, 0.108]

Return reported EC50 values for all items listed beneath this line.
1. C[C@@H]1c2ccccc2CCN1C(=O)c1cc(C2CC2)n2nc(-c3ccc(N4CCCC(C(N)=O)C4)cc3F)cc2n1 (stereo partly shown) [Compound 69]
2. C[C@@H]1c2ccccc2CCN1C(=O)c1cc(-c2cncc(F)c2)n2nc(-c3ccc(N4CC[C@H](C(N)=O)C4)cc3F)cc2n1 [Compound 90]

[out]
0.059
0.046

Return reported EC50 values for all items listed beneath this line.
1. CC(=O)N[C@H]1CCN(c2ccc(-c3cc4nc(C(=O)N5CCc6ccccc6[C@H]5C)cc(C5CC5)n4n3)c(F)c2)C1 [Compound 8]
2. Cc1ccc(-c2cc(C(=O)N3CCc4ccccc4[C@H]3C)nc3cc(-c4ccc(N5CC[C@H](C(N)=O)C5)cc4F)nn23)cc1 [Compound 58]

[out]
[0.041, 0.036]
